protocol_description: High throughput screening of water-soluble solid excipients for glucagon dissolution
Assay type: physicochemical
condition: solubilized glucagon after 30-minute incubation of lyophilized glucagon in pH 7.4 PBS containing 1 mg/mL excipient, 37° C.
readout_label: Glucagon concentration Avg. (mg/mL)

{"compound": "Nc1nc2ncc(CNc3ccc(C(=O)N[C@@H](CCC(=O)O)C(=O)O)cc3)nc2c(=O)[nH]1 [Folic acid]", "endpoint_result": 0.43}
{"compound": "O=S([O-])S(=O)(=O)[O-].[K+].[K+] [Potassium Metabisulfite]", "endpoint_result": 0.46}
{"compound": "O=S(=O)([O-])CCC[P+](c1ccccc1)(c1ccccc1)c1ccccc1", "endpoint_result": 0.26}
{"compound": "NCCCC[C@H](N)C(=O)O [L-lysine]", "endpoint_result": 0.61}
{"compound": "CC(C)(S)[C@@H](N)C(=O)O [D-Penicillamine]", "endpoint_result": 0.31}
{"compound": "O=S(=O)(O)CCCN1CCOCC1 [MOPS]", "endpoint_result": 0.17}

###

Recorded Fold change vs. PBS Avg. for the following compounds
protocol_description: High throughput screening of water-soluble solid excipients for glucagon dissolution
Assay type: physicochemical
condition: 30-minute incubation in pH 7.4 PBS containing 1 mg/mL excipient, 37° C.
readout_label: Fold change vs. PBS Avg. (fold)

{"compound": "CCCCCCCC[N+](C)(C)CCCS(=O)(=O)[O-]", "readout_label": "Fold change vs. PBS Avg.", "endpoint_result": 1.15}
{"compound": "OCCN(CCO)C(CO)(CO)CO", "readout_label": "Fold change vs. PBS Avg.", "endpoint_result": 1.67}
{"compound": "N[C@@H](Cc1ccccc1)C(=O)O", "readout_label": "Fold change vs. PBS Avg.", "endpoint_result": 1.66}
{"compound": "C[N+](C)(C)CC(=O)O", "readout_label": "Fold change vs. PBS Avg.", "endpoint_result": 1.11}
{"compound": "CCCCCCCCCCCC[N+](C)(C)CCCS(=O)(=O)O", "readout_label": "Fold change vs. PBS Avg.", "endpoint_result": 0.52}
{"compound": "O=S(=O)(O)CC(O)CN1CCOCC1 (centres unmarked)", "readout_label": "Fold change vs. PBS Avg.", "endpoint_result": 1.37}
{"compound": "O=S(=O)(O)CCCN1CCN(CCO)CC1", "readout_label": "Fold change vs. PBS Avg.", "endpoint_result": 0.79}
{"compound": "O=C[C@H](O)[C@@H](O)[C@@H](O)CO [L-(+)-Arabinose]", "readout_label": "Fold change vs. PBS Avg.", "endpoint_result": 1.52}
{"compound": "CSCC[C@H](N)C(=O)O", "readout_label": "Fold change vs. PBS Avg.", "endpoint_result": 1.81}
{"compound": "O=C([O-])c1ccccc1O.[Na+] [Sodium Salicylate]", "readout_label": "Fold change vs. PBS Avg.", "endpoint_result": 1.84}
{"compound": "CC(C)(S)[C@@H](N)C(=O)O", "readout_label": "Fold change vs. PBS Avg.", "endpoint_result": 1.42}
{"compound": "OC[C@H]1O[C@@H]2O[C@H]3[C@H](O)[C@@H](O)[C@@H](O[C@H]4[C@H](O)[C@@H](O)[C@@H](O[C@H]5[C@H](O)[C@@H](O)[C@@H](O[C@H]6[C@H](O)[C@@H](O)[C@@H](O[C@H]7[C@H](O)[C@@H](O)[C@@H](O[C@H]1[C@H](O)[C@H]2O)O[C@@H]7CO)O[C@@H]6CO)O[C@@H]5CO)O[C@@H]4CO)O[C@@H]3CO", "readout_label": "Fold change vs. PBS Avg.", "endpoint_result": 0.55}
{"compound": "O=C(O)CN(CCN(CC(=O)O)CC(=O)O)CCN(CC(=O)O)CC(=O)O", "readout_label": "Fold change vs. PBS Avg.", "endpoint_result": 1.95}
{"compound": "O=C([O-])[C@H](O)[C@@H](O)[C@H](O)[C@H](O)CO.[K+] [Potassium Gluconate]", "readout_label": "Fold change vs. PBS Avg.", "endpoint_result": 1.61}
{"compound": "O=C(O)CN(CCOCCOCCN(CC(=O)O)CC(=O)O)CC(=O)O", "readout_label": "Fold change vs. PBS Avg.", "endpoint_result": 3.11}
{"compound": "NC(=O)CN(CC(=O)O)CC(=O)O", "readout_label": "Fold change vs. PBS Avg.", "endpoint_result": 0.26}
{"compound": "Cl.N[C@@H](CS)C(=O)O [L-Cysteine hydrochloride]", "readout_label": "Fold change vs. PBS Avg.", "endpoint_result": 0.93}

###

protocol_description: High throughput screening of water-soluble solid excipients for glucagon dissolution
Type: physicochemical
condition: 30-minute incubation in pH 7.4 PBS containing 1 mg/mL excipient, 37° C.

{"compound": "NC(=O)CNCCS(=O)(=O)O", "Fold change vs. PBS Avg. (fold)": 1.12}
{"compound": "N[C@@H](Cc1c[nH]c2ccccc12)C(=O)O", "Fold change vs. PBS Avg. (fold)": 1.54}
{"compound": "NC(=O)C[C@H](N)C(=O)O.O [Asparagine monohydrate]", "Fold change vs. PBS Avg. (fold)": 1.55}

###

protocol_description: High throughput screening of water-soluble solid excipients for glucagon dissolution
Assay type: physicochemical
condition: 30-minute incubation in pH 7.4 PBS containing 1 mg/mL excipient, 37° C.
readout_label: Fold change vs. PBS Avg. (fold)

{"compound": "O=S(=O)(O)CCCN1CCOCC1 [MOPS]", "readout_units": "fold", "endpoint_result": 0.80}
{"compound": "OC[C@H]1O[C@@H]2O[C@H]3[C@H](O)[C@@H](O)[C@@H](O[C@H]4[C@H](O)[C@@H](O)[C@@H](O[C@H]5[C@H](O)[C@@H](O)[C@@H](O[C@H]6[C@H](O)[C@@H](O)[C@@H](O[C@H]7[C@H](O)[C@@H](O)[C@@H](O[C@H]8[C@H](O)[C@@H](O)[C@@H](O[C@H]1[C@H](O)[C@H]2O)O[C@@H]8CO)O[C@@H]7CO)O[C@@H]6CO)O[C@@H]5CO)O[C@@H]4CO)O[C@@H]3CO [B-Cyclodextrin]", "readout_units": "fold", "endpoint_result": 1.40}
{"compound": "CC(C)C[C@H](N)C(=O)O [L-leucine]", "readout_units": "fold", "endpoint_result": 1.32}
{"compound": "OC[C@@H](O)[C@@H](O)[C@H](O)[C@H](O)CO [Mannitol]", "readout_units": "fold", "endpoint_result": 2.49}
{"compound": "CC(O)COC[C@H]1O[C@@H]2O[C@H]3[C@H](O)[C@@H](O)[C@@H](O[C@H]4[C@H](O)[C@@H](O)[C@@H](O[C@H]5[C@H](O)[C@@H](O)[C@@H](O[C@H]6[C@H](O)[C@@H](O)[C@@H](O[C@H]7[C@H](O)[C@@H](O)[C@@H](O[C@H]8[C@H](O)[C@@H](O)[C@@H](O[C@H]1[C@H](O)[C@H]2O)O[C@@H]8COCC(C)O)O[C@@H]7COCC(C)O)O[C@@H]6COCC(C)O)O[C@@H]5COCC(C)O)O[C@@H]4COCC(C)O)O[C@@H]3COCC(C)O (some centres unmarked) [Hydroxypropyl Betadex]", "readout_units": "fold", "endpoint_result": 1.74}
{"compound": "O=S(=O)([O-])CCC[P+](c1ccccc1)(c1ccccc1)c1ccccc1", "readout_units": "fold", "endpoint_result": 1.21}
{"compound": "CC(C)(O)C(Cl)(Cl)Cl [Chlorobutanol Hemihydrate]", "readout_units": "fold", "endpoint_result": 1.83}
{"compound": "N[C@@H](Cc1c[nH]cn1)C(=O)O [L-histidine]", "readout_units": "fold", "endpoint_result": 2.57}
